Ref: PubChem BioAssay

target_or_test_system: Concanavalin-A (Canavalia ensiformis)
measurement_notes: ConA small-molecule binders, primary screen, artefact control for SMM control protein annotation, biochemical, small-molecule microarray, Alexa647 label, 635 nm (AID 1127);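 note: z combines 667 nm emission intensity with signal-to-noise across three replicate slides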
condition_set: ConA-A647 binding fluorescence, higher = more signal
So I've got a bunch of compounds here, and I need their composite z-score values.
The answer should be a number; do not append a unit.

Name the reported composite z-score value associated with the compound COc1ccccc1CN1C(=O)c2ccccc2[C@@H](C(=O)NCC(F)(F)F)[C@@H]1c1ccc(CO)cc1
0.721

Name the reported composite z-score value associated with the compound COC(=O)[C@H](C)NC(=O)CCC1CC(OC(=O)NCCc2ccc(F)cc2)CC2(CCCC(COC(=O)NCC(c3ccccc3)c3ccccc3)O2)O1 (stereo partly drawn)
0.714

Name the reported composite z-score value associated with the compound CO[C@@H]1COC(=O)CC=C[C@@H](C)[C@@H]2C=C[C@H](O)[C@@H](COC(=O)CCC[C@H]1C)O2
-0.239
